# Test system: L1210 leukemia ip in BDF1 mice, survival T/C
# method.description: NCI In Vivo Anticancer Drug Screen. Data for tumor model L1210 Leukemia (intraperitoneal) in B6D2F1 (BDF1) mice
# condition.notes: endpoint: mean survival time; dose: 400.0 mg/kg/injection; schedule: Q04DX003 (ip); vehicle: Klucel (hydroxypropylcellulose) (HPC); higher = longer survival
# Method: The antitumor activity of compounds was measured in mice bearing transplantable tumors. Survival or tumor size were measured and the results are expressed as the measurement made in the treated group (T) divided by the measurement made in the vehicle treated control group (C). The tumor model used in this assay is L1210 Leukemia (intraperitoneal) in B6D2F1 (BDF1) mice
Toxic doses and inconclusive results are not listed.
measured.property: T/C

{"columns": ["compound", "T/C"],
 "data": [
  ["CCCCCCCCCCCCCCCC(S(=O)(=O)CC)S(=O)(=O)CC", "87 % of control"],
  ["CSc1ccc(OC2CCCCC2OS(C)(=O)=O)cc1 (centres undefined)", "96 % of control"],
  ["Cc1cc(C)c2c(c1C)OC(C)(C)C=C2", "100 % of control"]
]}

Here is the next item to consider.
Please supply the value of reported T/C for the item COC(=O)c1ccc(C(=O)OC)c(=O)[nH]1 97 % of control

----------
# System: L1210 leukemia ip in BDF1 mice, survival T/C
# method.description: NCI In Vivo Anticancer Drug Screen. Data for tumor model L1210 Leukemia (intraperitoneal) in B6D2F1 (BDF1) mice
# condition.notes: endpoint: mean survival time; dose: 100.0 mg/kg/injection; schedule: Q04DX002 (ip); vehicle: saline; higher = longer survival
Toxic doses and inconclusive results are not listed.
So I've got a bunch of compounds here, and I need their T/C values.

// below: answered compounds
{"columns": ["compound", "target.or.test.system", "T/C"],
 "data": [
  ["C=C(CCC(=O)OC)C1=C(C)CC2OC(=O)C(=C)C2C1 (centres undefined)", "L1210 leukemia ip in BDF1 mice, survival T/C", "113 % of control"],
  ["CNc1ccccc1C(=O)N/N=C/c1ccc(OC)cc1", "L1210 leukemia ip in BDF1 mice, survival T/C", "102 % of control"],
  ["O=Cc1cccc(OCc2cccc([N+](=O)[O-])c2)c1", "L1210 leukemia ip in BDF1 mice, survival T/C", "102 % of control"]
]}

Consider the record given below.
Provide measured T/C value, entry: O=CNCC(=O)O 92 % of control

----------
# System: L1210 leukemia ip in BDF1 mice, survival T/C
# method.description: NCI In Vivo Anticancer Drug Screen. Data for tumor model L1210 Leukemia (intraperitoneal) in B6D2F1 (BDF1) mice
# condition.notes: endpoint: mean survival time; dose: 200.0 mg/kg/injection; schedule: Q04DX003 (ip); vehicle: Klucel (hydroxypropylcellulose) (HPC); higher = longer survival
Inconclusive results and toxic doses are left out.
measured.property: T/C

{"columns": ["compound", "measured.property", "observed.result"],
 "data": [
  ["Oc1ccc(C2CCc3ccccc32)cc1 (stereo not drawn)", "T/C", "100 % of control"],
  ["O=C1C(Cl)=C(Cl)C(=O)C2=C1C1c3ccccc3C2c2ccccc21", "T/C", "94 % of control"],
  ["CC(=O)Nc1cc(C)c(C)cc1[N+](=O)[O-]", "T/C", "102 % of control"],
  ["Nc1nc(N)nc(-c2ccc(NC(=O)c3ccccc3[N+](=O)[O-])cc2)n1", "T/C", "103 % of control"],
  ["Clc1ccc2c(c1)/C(=C/c1ccccc1Cl)c1cc(Cl)cc(Cl)c1-2", "T/C", "87 % of control"],
  ["O=C1CC(C(=O)O)C(c2ccccc2F)O1 (stereo not drawn)", "T/C", "101 % of control"],
  ["CCOc1ccc([N+](=O)[O-])cn1", "T/C", "104 % of control"],
  ["O=C(Nc1cccc(Cl)c1)Nc1cccc(Cl)c1", "T/C", "93 % of control"],
  ["N=C(N=C(Cc1ccccc1)c1ccccc1)c1ccccc1", "T/C", "96 % of control"],
  ["O=C1c2ccccc2S(=O)(=O)N1CCN1C(=O)c2ccccc2S1(=O)=O", "T/C", "93 % of control"]
]}

List reported T/C for each of these compounds:
1. CC(=O)O/N=C1\c2ccccc2-c2ccc([N+](=O)[O-])cc21
2. Cc1ccc2c(Br)cc(Br)c(O)c2n1
3. Nc1nc(N)c2cc(CCc3ccccc3)ccc2n1
4. CN(C)C(=S)Oc1ccc(N)cc1
5. NC(CO)C(O)c1ccc([N+](=O)[O-])cc1 (stereo not drawn)
6. Cc1c(O)ccc2c1OCC2=O

["95 % of control", "112 % of control", "90 % of control", "101 % of control", "100 % of control", "98 % of control"]
